Molecular target: human DLL3 protein (extracellular segment, His tag) (human) (UniProt Q9NYJ7)
Sequence (Q9NYJ7 27-492): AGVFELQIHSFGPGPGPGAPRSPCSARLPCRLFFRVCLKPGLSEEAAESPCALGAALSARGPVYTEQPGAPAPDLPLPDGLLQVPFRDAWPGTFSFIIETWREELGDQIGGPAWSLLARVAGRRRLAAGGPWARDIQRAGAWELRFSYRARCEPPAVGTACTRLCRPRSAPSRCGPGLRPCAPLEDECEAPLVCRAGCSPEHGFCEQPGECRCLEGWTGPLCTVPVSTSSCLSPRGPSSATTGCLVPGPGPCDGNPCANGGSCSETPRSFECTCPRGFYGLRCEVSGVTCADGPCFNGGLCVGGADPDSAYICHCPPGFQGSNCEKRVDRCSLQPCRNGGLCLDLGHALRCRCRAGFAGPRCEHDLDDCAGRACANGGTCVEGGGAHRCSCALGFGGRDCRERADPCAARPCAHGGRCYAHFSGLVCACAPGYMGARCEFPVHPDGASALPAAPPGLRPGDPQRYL
Assay: SPR (Biacore 8K), antibody captured on Protein A chip, DLL3 antigen in solution, 1:1 Langmuir fit
Recorded Kd for the following binders
Number only, in nM; omit the unit.

Exercise: Name the recorded Kd of the binder listed here: mab008 scFv-hFc (Fc fusion, part only; not given: linker and human IgG1 Fc, not shown: a dimerising Fc or GST) scFv, part: DIVMTQSQKFMSTSVGDRVSITCKASQNVGTAVAWYQQKPGQSPKLLIFSASIRYTGVPDRFTGSGSGTDFTLTISNMQSEDLADYFCQQYSSSPYTFGGGTKLEIKEVQLQQSGPVLVKPGASVKMSCKASGYTFTDYYMNWVKRSHGKSLEWIGIINPYNGGTSYNQKFRGKATLTVDKSSNTAYMELNSLTSEDSAVYYCSRYDYDYDVEGAMDYWGQGTSVTVSS
Solution: 0.381

Exercise: Return Kd (reported value) for this binder: mab013 scFv-hFc (Fc fusion, part only; not given: linker and human IgG1 Fc, not shown: a dimerising Fc or GST) scFv, part: DIVLTQSPASLAVSLGQRATISCRASKSVSTSGFSYMHWYQQKPGQPPKLLIYLASNLESGVPARFSGSGSGTDFTLNIHPVEEEDAATYYCQHSRELPFTFGSGTKLEIKQVQLQQSGAELVKPGASVRISCKASGYAFSNYWINWVKQRPGKGLEWIGQINPGDGDTIYNGKFKGKATLTADKSSSTAYMQLSSLTSEDSAVYFCEREGRNYGDFAYWGQGTTLTVSS
Solution: 0.264

---
Exercise: Give a short answer stating reported Kd for mab009 scFv-hFc (Fc fusion, part only; not given: Linker and human IgG1 Fc, not shown: a dimerising Fc or GST) scFv, part: DIVMTQSPATLSVTPGDRVSLSCRASQTISDYLHWYQQRSHESPRLLIKYASQSISGIPSRFSGSGSGSDFTLSINSVEPEDVGVYYCQNGHSFPLTFGAGTKLELKEVQLQQSGTVLARPGASVKMSCKTSGYTFTSYWMHWVKQSPGQGLEWIGTIYPGNSDTRYNQKFKDKAYVTAVTSASTAYMELSSLTNEESAVYYCTRSYDYGDLDYWGQGTTLTVSS .
Solution: 0.216
